- test target: muscarinic M2 receptor (Homo sapiens)
- Sequence (P08172 whole entry): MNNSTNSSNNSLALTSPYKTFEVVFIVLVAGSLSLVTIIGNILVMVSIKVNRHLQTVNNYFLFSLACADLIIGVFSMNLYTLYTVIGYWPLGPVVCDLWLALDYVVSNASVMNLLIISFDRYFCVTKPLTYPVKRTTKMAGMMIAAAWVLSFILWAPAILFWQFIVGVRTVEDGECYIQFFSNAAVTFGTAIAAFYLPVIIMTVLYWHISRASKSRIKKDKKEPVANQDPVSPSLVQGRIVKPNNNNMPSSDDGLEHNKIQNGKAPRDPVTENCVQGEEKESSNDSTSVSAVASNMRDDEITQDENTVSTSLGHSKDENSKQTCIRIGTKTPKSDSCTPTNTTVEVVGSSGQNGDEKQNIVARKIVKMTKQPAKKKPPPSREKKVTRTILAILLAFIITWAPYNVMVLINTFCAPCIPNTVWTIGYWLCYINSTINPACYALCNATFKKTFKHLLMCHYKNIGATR
- experiment description: G-protein-dependent signal transduction, intracellular Ca2+ mobilization
property name: IC50
Put down the number, then write its unit next to it.

[in] Recorded IC50 for `CNCCC=C1c2ccccc2C=Cc2ccccc21` , please?
[out] 33 nM

* * *

- experiment description: in vivo
- condition parameters: beagle, dog, iv
Where a name gives a salt, the structure may show the parent alone.
property name: Tmax (min)
Your answer should be a plain number; it is taken to be in min.

[in] Recorded Tmax for CN(C)CCC=C1c2ccccc2C=Cc2ccccc21 [cyclobenzaprine HCl] , please?
[out] 5

* * *

- experiment description: in vivo
- condition parameters: female, beagle, dog, iv, 0.14 mg/kg, Cyclobenzaprine plasma concentration
Structures can show the parent of a compound that is named as a salt.
property name: concentration at 20 min
Put down the number, then write its unit next to it.

[in] Recorded concentration at 20 min for CN(C)CCC=C1c2ccccc2C=Cc2ccccc21 [cyclobenzaprine HCl] , please?
[out] 17.3 ng/mL
